These data points were gathered from ChEMBL document CHEMBL1152575.

Give measured pEC50 for each item. Keep answers brief.
Organism: Rattus norvegicus
assay name: Stimulation [3H]muscimol binding to GABA binding site of GABA-A receptor in Sprague-Dawley rat cerebellum by liquid scintillation spectrophotometry
Assay type: tissue-based
# reply with the number alone; pEC50 is -log10 of concentration in mol/L

Ask | Entry CC(=O)[C@H]1CC[C@H]2[C@@H]3CC[C@H]4C[C@H](O)[C@@H]5C[C@]4(COS(=O)(=O)N5Cc4ccccc4)[C@H]3CC[C@]12C needs its pEC50 filled in; supply it.
Reply | 5.72

Ask | Entry CC(=O)[C@H]1CC[C@H]2[C@@H]3CC[C@H]4C[C@H](O)CC[C@]4(C)[C@H]3CC[C@]12C needs its pEC50 filled in; supply it.
Reply | 6.18

Ask | Entry CC(=O)[C@H]1CC[C@H]2[C@@H]3CC[C@H]4C[C@H](O)[C@@H]5C[C@]4(COS(=O)(=O)N5)[C@H]3CC[C@]12C needs its pEC50 filled in; supply it.
Reply | 6.27
